Values compiled from ChEMBL document CHEMBL1201862.

Tested on: SF-295
Experiment: NCI tumour cell line growth inhibition, 48 h
Activity calls are given as the source filed them. No stated cut-off is given here; in the data, active = GI50 up to about 1.1 µM and inactive = higher.
Outcomes: Y (active), N (inactive)

[
  {
    "COMPOUND": "Cc1c(N2C(=O)CS(=O)(=O)C2c2cccc(Oc3ccccc3)c2)c(=O)n(-c2ccccc2)n1C (stereo not given)",
    "ASSAYED SYSTEM": "SF-295",
    "CLASS LABEL": "N"
  },
  {
    "COMPOUND": "COc1ccc(NC(=O)CC(=O)NN)cc1",
    "ASSAYED SYSTEM": "SF-295",
    "CLASS LABEL": "N"
  },
  {
    "COMPOUND": "O=[N+]([O-])c1cc(Cl)cc2c1nc(NCCO)c1ccccc12",
    "ASSAYED SYSTEM": "SF-295",
    "CLASS LABEL": "N"
  },
  {
    "COMPOUND": "N/C(=N\\O)N/N=C/c1ccc(O)c(O)c1",
    "ASSAYED SYSTEM": "SF-295",
    "CLASS LABEL": "N"
  },
  {
    "COMPOUND": "N#C/C(=C1C=C(Br)/C(=N\\O)C=C\\1Cl)c1cccc2ccccc12",
    "ASSAYED SYSTEM": "SF-295",
    "CLASS LABEL": "N"
  },
  {
    "COMPOUND": "Nc1nc(N)c(CCCCc2ccccc2)c(N)n1",
    "ASSAYED SYSTEM": "SF-295",
    "CLASS LABEL": "N"
  },
  {
    "COMPOUND": "CO/N=C1/c2sccc2[C@H](NC(=O)CNC(=O)OC(C)(C)C)[C@@H]1O",
    "ASSAYED SYSTEM": "SF-295",
    "CLASS LABEL": "N"
  },
  {
    "COMPOUND": "O=C(O)[C@H]1CCCN1CP(=O)(O)CN1CCC[C@@H]1C(=O)O",
    "ASSAYED SYSTEM": "SF-295",
    "CLASS LABEL": "N"
  },
  {
    "COMPOUND": "C=C1CC(c2ccc(OCCCN3C(=O)c4ccccc4C3=O)c(OC)c2)OC1=O (stereo not given)",
    "ASSAYED SYSTEM": "SF-295",
    "CLASS LABEL": "N"
  },
  {
    "COMPOUND": "COc1cc(C(=O)N[C@H]2CCc3cc(OC)c(OC)c(OC)c3-c3ccc(SC)c(=O)cc32)cc(OC)c1OC",
    "ASSAYED SYSTEM": "SF-295",
    "CLASS LABEL": "Y"
  }
]

* * *

System: TK-10
Assay: NCI tumour cell line growth inhibition, 48 h
The source made the active and inactive calls. Rule as the data show it: active = GI50 up to about 1.1 µM and inactive = higher.
Outcomes: active, inactive

[
  {
    "COMPOUND": "O=c1[nH]c2ccccc2cc1C(Cl)=C(Cl)Cl",
    "CLASS LABEL": "inactive"
  },
  {
    "COMPOUND": "CCCN(CCCC(NC(C)=O)C(=O)NCc1ccccc1)C(=O)N(CCCl)N=O (stereo not drawn)",
    "CLASS LABEL": "inactive"
  },
  {
    "COMPOUND": "COc1ccc(CC/N=C2\\CCC(C(=O)NCCc3ccc(OC)c(OC)c3)N2)cc1OC (stereo not drawn)",
    "CLASS LABEL": "inactive"
  },
  {
    "COMPOUND": "COc1cc(C(=O)N[C@H]2CCc3cc(OC)c(OC)c(OC)c3-c3ccc(SC)c(=O)cc32)cc(OC)c1OC",
    "CLASS LABEL": "active"
  },
  {
    "COMPOUND": "c1ccc2c(c1)CCN(C1=NCCO1)C2",
    "CLASS LABEL": "inactive"
  },
  {
    "COMPOUND": "C=C1CC(c2ccc(OCCCN3C(=O)c4ccccc4C3=O)c(OC)c2)OC1=O (stereo not drawn)",
    "CLASS LABEL": "inactive"
  },
  {
    "COMPOUND": "COc1cccc2c1OC(c1cccc3ccccc13)C([N+](=O)[O-])=C2 (stereo not drawn)",
    "CLASS LABEL": "inactive"
  },
  {
    "COMPOUND": "CN(C)CCOc1ccc(-c2c(Oc3ccccc3)c(=O)oc3ccccc23)cc1",
    "CLASS LABEL": "inactive"
  }
]
